Biological target: panel of more than 300 wild-type and mutant kinases (313 kinase panel) (Homo sapiens)
Sequence (O14920 whole entry, change not shown): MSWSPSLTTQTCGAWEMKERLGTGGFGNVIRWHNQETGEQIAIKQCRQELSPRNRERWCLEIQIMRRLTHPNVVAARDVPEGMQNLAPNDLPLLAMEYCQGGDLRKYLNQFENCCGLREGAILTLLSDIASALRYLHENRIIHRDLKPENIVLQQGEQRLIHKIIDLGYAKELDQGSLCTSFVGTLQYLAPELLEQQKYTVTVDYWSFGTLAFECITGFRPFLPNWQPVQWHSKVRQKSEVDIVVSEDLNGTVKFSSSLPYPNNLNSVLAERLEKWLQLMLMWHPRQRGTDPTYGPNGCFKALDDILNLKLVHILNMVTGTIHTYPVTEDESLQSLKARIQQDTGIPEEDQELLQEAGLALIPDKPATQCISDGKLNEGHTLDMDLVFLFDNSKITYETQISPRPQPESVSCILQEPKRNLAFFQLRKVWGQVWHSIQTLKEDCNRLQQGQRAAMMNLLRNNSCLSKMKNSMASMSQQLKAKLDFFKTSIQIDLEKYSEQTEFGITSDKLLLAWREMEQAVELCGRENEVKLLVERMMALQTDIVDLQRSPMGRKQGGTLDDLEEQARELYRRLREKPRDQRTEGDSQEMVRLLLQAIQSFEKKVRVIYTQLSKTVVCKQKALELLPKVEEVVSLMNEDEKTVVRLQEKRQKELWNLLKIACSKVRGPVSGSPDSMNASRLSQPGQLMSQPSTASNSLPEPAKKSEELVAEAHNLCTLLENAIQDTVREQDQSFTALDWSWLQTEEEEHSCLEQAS
Test: Kinase profiling in a biochemical assay panel (mobility shift assays and ELISA), %-inhibition at 1 μM; selectivity entropy
Details: kinase IKKβ; compound at 1 μM
resultType: %-inhibition of IKKβ (%)
I only need the number, in %, no unit after it.

Item: C[C@@H](Oc1cc(-c2cnn(C3CCNCC3)c2)cnc1N)c1c(Cl)ccc(F)c1Cl | System: panel of more than 300 wild-type and mutant kinases (313 kinase panel) (Homo sapiens) | %-inhibition of IKKβ: -5

Item: O=S(=O)(c1cccc2cnccc12)N1CCCNCC1 | System: panel of more than 300 wild-type and mutant kinases (313 kinase panel) (Homo sapiens) | %-inhibition of IKKβ: 3.71

Item: CS(=O)(=O)CCNCc1ccc(-c2ccc3ncnc(Nc4ccc(OCc5cccc(F)c5)c(Cl)c4)c3c2)o1 | System: panel of more than 300 wild-type and mutant kinases (313 kinase panel) (Homo sapiens) | %-inhibition of IKKβ: 0.904

Item: CO[C@H]1C[C@@H]2CC[C@@H](C)[C@@](O)(O2)C(=O)C(=O)N2CCCC[C@H]2C(=O)O[C@H]([C@H](C)C[C@@H]2CC[C@@H](OCCO)[C@H](OC)C2)CC(=O)[C@H](C)/C=C(\C)[C@@H](O)[C@@H](OC)C(=O)[C@H](C)C[C@H](C)/C=C/C=C/C=C/1C | System: panel of more than 300 wild-type and mutant kinases (313 kinase panel) (Homo sapiens) | %-inhibition of IKKβ: -3

Item: CC(C)(C)c1nc(-c2cccc(NS(=O)(=O)c3c(F)cccc3F)c2F)c(-c2ccnc(N)n2)s1 | System: panel of more than 300 wild-type and mutant kinases (313 kinase panel) (Homo sapiens) | %-inhibition of IKKβ: 3.71

Item: Cc1ccc(C(=O)Nc2ccc(CN3CCN(C)CC3)c(C(F)(F)F)c2)cc1C#Cc1cnc2cccnn12 | System: panel of more than 300 wild-type and mutant kinases (313 kinase panel) (Homo sapiens) | %-inhibition of IKKβ: 46

Item: COc1cc(Nc2c(C#N)cnc3cc(OCCCN4CCN(C)CC4)c(OC)cc23)c(Cl)cc1Cl | System: panel of more than 300 wild-type and mutant kinases (313 kinase panel) (Homo sapiens) | %-inhibition of IKKβ: -6

---

For each entry below, report its pIC50 value.
System: forty-four human cancer cell lines
Assay: Cell proliferation assay (ATPlite, 72 hours) in the 44 cell line Oncolines panel
Format: cell-based
Conditions: Homo sapiens, A-375, cell line A375; read-out: cell panel IC50, A375
# pIC50 = -log10(concentration in molar units)

Recorded pIC50 (compound CC(C)C[C@H](NC(=O)[C@H](Cc1ccccc1)NC(=O)c1cnccn1)B(O)O [bortezomib] ): 7.89

Recorded pIC50 (compound CC(C)(C)c1nc(-c2cccc(NS(=O)(=O)c3c(F)cccc3F)c2F)c(-c2ccnc(N)n2)s1 [dabrafenib] ): 7.59

---

For each entry below, report its %-inhibition of TAK1-TAB1 value.
Tested on: panel of more than 300 wild-type and mutant kinases (313 kinase panel)
Assay: Kinase profiling in a biochemical assay panel (mobility shift assays and ELISA), %-inhibition at 1 μM; selectivity entropy
I only need the number, in %, no unit after it.

Recorded %-inhibition of TAK1-TAB1 (molecule COc1cc(Nc2c(C#N)cnc3cc(OCCCN4CCN(C)CC4)c(OC)cc23)c(Cl)cc1Cl [bosutinib] ): 83

Recorded %-inhibition of TAK1-TAB1 (molecule COc1cc2c(Nc3ccc(Br)cc3F)ncnc2cc1OCC1CCN(C)CC1 [vandetanib] ): 6

Recorded %-inhibition of TAK1-TAB1 (molecule C[C@@H](Oc1cc(-c2cnn(C3CCNCC3)c2)cnc1N)c1c(Cl)ccc(F)c1Cl [crizotinib] ): 5

Recorded %-inhibition of TAK1-TAB1 (molecule Cc1ccc(Nc2nccc(N(C)c3ccc4c(C)n(C)nc4c3)n2)cc1S(N)(=O)=O [pazopanib] ): -4.34

Recorded %-inhibition of TAK1-TAB1 (molecule N#CC[C@H](C1CCCC1)n1cc(-c2ncnc3[nH]ccc23)cn1 [ruxolitinib] ): 6

Recorded %-inhibition of TAK1-TAB1 (molecule Cc1cn(-c2cc(NC(=O)c3ccc(C)c(Nc4nccc(-c5cccnc5)n4)c3)cc(C(F)(F)F)c2)cn1 [nilotinib] ): 5

Recorded %-inhibition of TAK1-TAB1 (molecule C#Cc1cccc(Nc2ncnc3cc(OCCOC)c(OCCOC)cc23)c1 [erlotinib] ): 5
